- Target Or System: T1, RBFOX1 RRM RbFoxmut (Fox-RRM*) (Homo sapiens, UniProt Q9NWB1 109-208, R118D;E147R;N151S;E152T)
- T1 sequence: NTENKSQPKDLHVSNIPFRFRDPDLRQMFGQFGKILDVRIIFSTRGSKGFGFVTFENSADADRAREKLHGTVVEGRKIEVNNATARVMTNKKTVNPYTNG
- Protocol Notes: EMSA; HiTS-Eq, 1 nM pool, 10 min; buffer printed only for the single-RNA assays: 10 mM Tris pH 7.5, 150 mM NaCl, 3.4 mM EDTA, 0.001% NP-40, 30 C
- Run Conditions: tags: His6 N-terminal (pET28a); label: 5' 32P
In all, about 16,000 sequences were measured (“ka relative to ugcaugu”: median about 0.096, highest 2% from about 0.35 on). Many of the other results were omitted from the sample, so the highest values are more common in it than they were.
Measure Name: binding signal

Below are worked cases with known answers.
>>> value_reported("GAGACCG (DNA:RNA) RNA: GGGAGACCGGAAUUCAGAUUGUCCGAGACCGUUAAAUCCCGUCGUAGCCACCA DNA 1: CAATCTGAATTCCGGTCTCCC DNA 2: TGGTGGCTACGACGGGATT")
"0.0845 KA relative to UGCAUGU"
>>> value_reported("CGGAAUG (DNA:RNA) RNA: GGGAGACCGGAAUUCAGAUUGUCCCGGAAUGUUAAAUCCCGUCGUAGCCACCA DNA 1: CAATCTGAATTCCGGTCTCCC DNA 2: TGGTGGCTACGACGGGATT")
"1.43 KA relative to UGCAUGU"
>>> value_reported("GAGAGCA (DNA:RNA) RNA: GGGAGACCGGAAUUCAGAUUGUCCGAGAGCAUUAAAUCCCGUCGUAGCCACCA DNA 1: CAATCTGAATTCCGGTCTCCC DNA 2: TGGTGGCTACGACGGGATT")
"0.151 KA relative to UGCAUGU"

Pending binder:
Assign binding signal to the following record: ACGAAUC (DNA:RNA) RNA: GGGAGACCGGAAUUCAGAUUGUCCACGAAUCUUAAAUCCCGUCGUAGCCACCA DNA 1: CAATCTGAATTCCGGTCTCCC DNA 2: TGGTGGCTACGACGGGATT 0.283 KA relative to UGCAUGU
